method: Equilibrium of rapamycin between formed blood elements (FBE), whole blood and plasma in rat blood
Format: in vitro ADME
experimental-setup: blood, rapamycin 38 ng/ml
readout-type: blood plasma ratio

Please report blood plasma ratio for the following compound: CO[C@H]1C[C@@H]2CC[C@@H](C)[C@@](O)(O2)C(=O)C(=O)N2CCCC[C@H]2C(=O)O[C@H]([C@H](C)C[C@@H]2CC[C@@H](O)[C@H](OC)C2)CC(=O)[C@H](C)/C=C(\C)[C@@H](O)[C@@H](OC)C(=O)[C@H](C)C[C@H](C)/C=C/C=C/C=C/1C
1.3

---

method: Equilibrium of rapamycin between formed blood elements (FBE), whole blood and plasma in rat blood
Type: in vitro ADME
experimental-setup: formed blood elements, rapamycin 38 ng/ml, read-out: FBE to plasma ratio
readout-type: Kp

Please report Kp for the following compound: CO[C@H]1C[C@@H]2CC[C@@H](C)[C@@](O)(O2)C(=O)C(=O)N2CCCC[C@H]2C(=O)O[C@H]([C@H](C)C[C@@H]2CC[C@@H](O)[C@H](OC)C2)CC(=O)[C@H](C)/C=C(\C)[C@@H](O)[C@@H](OC)C(=O)[C@H](C)C[C@H](C)/C=C/C=C/C=C/1C
1.7

---

method: Whole blood to plasma concentration ratio in monkeys receiving rapamycin
Format: in vivo
experimental-setup: monkey, read-out: ratio of whole blood to plasma concentrations
readout-type: blood plasma ratio
Respond using a number only.

Please report blood plasma ratio for the following compound: CO[C@H]1C[C@@H]2CC[C@@H](C)[C@@](O)(O2)C(=O)C(=O)N2CCCC[C@H]2C(=O)O[C@H]([C@H](C)C[C@@H]2CC[C@@H](O)[C@H](OC)C2)CC(=O)[C@H](C)/C=C(\C)[C@@H](O)[C@@H](OC)C(=O)[C@H](C)C[C@H](C)/C=C/C=C/C=C/1C
10

---

method: Equilibrium of rapamycin between formed blood elements (FBE), whole blood and plasma in human blood
Format: in vitro ADME
experimental-setup: formed blood elements, rapamycin 76 to 189 ng/ml, 30 minutes incubation at 37° C., read-out: FBE to plasma ratio
readout-type: Kp
Respond using a number only.

Please report Kp for the following compound: CO[C@H]1C[C@@H]2CC[C@@H](C)[C@@](O)(O2)C(=O)C(=O)N2CCCC[C@H]2C(=O)O[C@H]([C@H](C)C[C@@H]2CC[C@@H](O)[C@H](OC)C2)CC(=O)[C@H](C)/C=C(\C)[C@@H](O)[C@@H](OC)C(=O)[C@H](C)C[C@H](C)/C=C/C=C/C=C/1C
23.7

---

method: Whole blood to plasma concentration ratio in humans receiving rapamycin
Format: in vivo
experimental-setup: human, read-out: ratio of whole blood to plasma concentrations
readout-type: blood plasma ratio

Please report blood plasma ratio for the following compound: CO[C@H]1C[C@@H]2CC[C@@H](C)[C@@](O)(O2)C(=O)C(=O)N2CCCC[C@H]2C(=O)O[C@H]([C@H](C)C[C@@H]2CC[C@@H](O)[C@H](OC)C2)CC(=O)[C@H](C)/C=C(\C)[C@@H](O)[C@@H](OC)C(=O)[C@H](C)C[C@H](C)/C=C/C=C/C=C/1C
12
